# Tested on: H460 cells
# run_description: Apoptosis by Annexin V FITC flow cytometry, H460
# Format: cell-based, human
# conditions_used: Assay 2, library 2; 10 μM for 3 days; control 10.24
Give apoptosis, % H460 for every item shown.
Lab book: enter the figure in %, no units written.

Input line: Fill blank: measured apoptosis, % H460 of the compound CCCCC(O)c1[nH]c2cc(C)c(C(=O)O)cc2c1Cc1ccccc1 (stereo not shown) is ____.
Output line: 24.26

Input line: Would you mind doing CCCCC(O)c1[nH]c2cc(C)c(C(=O)O)cc2c1C1CCCCC1 (stereo not shown) as well?
Output line: 28.8

Input line: Request: CCCCC(=O)c1[nH]c2cc(C)c(C(=O)O)cc2c1CC(C)C
Output line: 41.48

Input line: Item: CCCCC(O)c1[nH]c2cc(C)c(C(=O)O)cc2c1CCCO (stereo not shown)
Output line: 15.7

Input line: One more compound: CCCCC(O)c1[nH]c2cc(C)c(C(=O)O)cc2c1-c1ccccc1 (stereo not shown)
Output line: 35.51

Input line: Let us now turn to CCCCC(O)c1[nH]c2cc(C)c(C(=O)O)cc2c1CCCC(=O)O (stereo not shown)
Output line: 18.93

Input line: Moving on to the next compound: CCCCC(=O)c1[nH]c2cc(C)c(C(=O)O)cc2c1CCCO
Output line: 19.96
